Source of measurements: the NIST ThermoML archive (doi:10.1021/je049610v)

Conditions: 303.15 K; 101 kPa; Liquid
Overview of reported viscosity across a group of molecules:
# unit: mPa·s | format: bare number

INSERT INTO results (molecule, observed_measurement) VALUES
  ('C1COCCO1', 1.171),
  ('ClC(Cl)=C(Cl)Cl', 0.817),
  ('C[S+](C)[O-] [dimethyl sulfoxide]', 1.801);

Which viscosity value is on record for OCCCl [1-chloro-2-hydroxyethane] ?
2.669

Which viscosity value is on record for CCOC(=O)C(=O)OCC [diethyl ethanedioate] ?
1.659

Which viscosity value is on record for CN(C)C=O [dimethylformamide] ?
0.754

Which viscosity value is on record for `ClC(Cl)C(Cl)Cl` ?
1.471

----------
Conditions: 308.15 K; 101 kPa; Liquid
Quick rule for you: viscosity under 1 mPa·s gets Met, anything else gets Not met.

Study these solved cases before continuing.
INSERT INTO results (molecule, assigned_category) VALUES
  ('OCCCl [1-chloro-2-hydroxyethane]', 'Not met'),
  ('ClC(Cl)=C(Cl)Cl [tetrachloroethene]', 'Met'),
  ('C1COCCO1 [1,4-dioxane]', 'Not met');

Field: below-cutoff. Rule: recorded viscosity strictly less than 1 mPa·s. Subject: CCOC(=O)C(=O)OCC [diethyl ethanedioate]
Not met

Field: below-cutoff. Rule: recorded viscosity strictly less than 1 mPa·s. Subject: ClC(Cl)C(Cl)Cl [1,1,2,2-tetrachloroethane]
Not met

----------
Conditions: 308.15 K; 101 kPa; Liquid
test.readout: mass density (kg/m3)
# unit: kg/m3 | format: bare number

Please review the entries below; each comes with its answer.
INSERT INTO assay_data (compound, test_readout, observed_measurement) VALUES
  ('ClC(Cl)=C(Cl)Cl', 'mass density', 1599),
  ('COc1ccccc1', 'mass density', 979.4),
  ('CN(C)C=O [dimethylformamide]', 'mass density', 935);

Which mass density value is on record for CCOC(=O)C(=O)OCC [diethyl ethanedioate] ?
1060.7

Which mass density value is on record for `ClC(Cl)C(Cl)Cl` ?
1573.3

Which mass density value is on record for C[S+](C)[O-] [dimethyl sulfoxide] ?
1086.2

Which mass density value is on record for `C1COCCO1` ?
1017.8

Which mass density value is on record for OCCCl [1-chloro-2-hydroxyethane] ?
1187.1

----------
Test: refractive index (Na D-line) (dimensionless)
Settings: 303.15 K; 101.33 kPa; Liquid
test.readout: refractive index
Give the figure by itself; no unit, no explanation.

INSERT INTO results (molecule, observed_measurement) VALUES
  ('CN(C)C=O [dimethylformamide]', 1.4264),
  ('ClC(Cl)C(Cl)Cl', 1.4894),
  ('C1COCCO1', 1.4176),
  ('COc1ccccc1', 1.5124),
  ('OCCCl [1-chloro-2-hydroxyethane]', 1.438);

Which refractive index value is on record for `ClC(Cl)=C(Cl)Cl` ?
1.501

Which refractive index value is on record for CCOC(=O)C(=O)OCC [diethyl ethanedioate] ?
1.4061

----------
Assay: refractive index (Na D-line) (dimensionless)
Settings: 298.15 K; 101.33 kPa; Liquid
Overview of reported refractive index across a group of molecules:
Give the figure by itself; no unit, no explanation.

Which refractive index value is on record for C[S+](C)[O-] [dimethyl sulfoxide] ?
1.4768

Which refractive index value is on record for OCCCl [1-chloro-2-hydroxyethane] ?
1.4411

----------
Settings: 298.15 K; 101 kPa; Liquid
± gives the expanded uncertainty stated by the source.
test.readout: mass density
Put your answer as a value accompanied by its unit after it.

INSERT INTO assay_data (molecule, test_readout, observed_measurement) VALUES
  ('CCOC(=O)C(=O)OCC [diethyl ethanedioate]', 'mass density', '1072.3 ± 2.2 kg/m3');

Which mass density value is on record for `ClC(Cl)C(Cl)Cl` ?
1587.8 ± 3.5 kg/m3

Which mass density value is on record for `COc1ccccc1` ?
988.9 ± 2 kg/m3

Which mass density value is on record for C[S+](C)[O-] [dimethyl sulfoxide] ?
1095.4 ± 2.3 kg/m3

Which mass density value is on record for `C1COCCO1` ?
1028.3 ± 2.1 kg/m3

Which mass density value is on record for `ClC(Cl)=C(Cl)Cl` ?
1614.7 ± 3.5 kg/m3

Which mass density value is on record for CN(C)C=O [dimethylformamide] ?
943.9 ± 4 kg/m3

Which mass density value is on record for OCCCl [1-chloro-2-hydroxyethane] ?
1200.9 ± 2.5 kg/m3

----------
Experiment: refractive index (Na D-line) (dimensionless)
Settings: 308.15 K; 101.33 kPa; Liquid
Overview of reported refractive index across a group of compounds:
Give the figure by itself; no unit, no explanation.

Please review the entries below; each comes with its answer.
INSERT INTO measurements (compound, observed_measurement) VALUES
  ('OCCCl [1-chloro-2-hydroxyethane]', 1.4326),
  ('CN(C)C=O [dimethylformamide]', 1.4238),
  ('ClC(Cl)C(Cl)Cl', 1.4865);

Which refractive index value is on record for `COc1ccccc1` ?
1.5092

----------
Settings: 298.15 K; 101 kPa; Liquid
Overview of reported speed of sound across a group of compounds:
# unit: m/s | format: bare number

Please review the entries below; each comes with its answer.
INSERT INTO assay_data (compound, unit_text, observed_measurement) VALUES
  ('ClC(Cl)=C(Cl)Cl [tetrachloroethene]', 'm/s', 1038),
  ('CN(C)C=O [dimethylformamide]', 'm/s', 1462),
  ('OCCCl [1-chloro-2-hydroxyethane]', 'm/s', 1358),
  ('C1COCCO1 [1,4-dioxane]', 'm/s', 1345),
  ('C[S+](C)[O-] [dimethyl sulfoxide]', 'm/s', 1493);

Which speed of sound value is on record for COc1ccccc1 [anisole] ?
1410

Which speed of sound value is on record for CCOC(=O)C(=O)OCC [diethyl ethanedioate] ?
1267

Which speed of sound value is on record for ClC(Cl)C(Cl)Cl [1,1,2,2-tetrachloroethane] ?
1153

----------
Overview of reported mass density across a group of molecules:
Conditions: 303.15 K; 101 kPa; Liquid
# unit: kg/m3 | format: bare number

INSERT INTO measurements (molecule, observed_measurement) VALUES
  ('OCCCl [1-chloro-2-hydroxyethane]', 1192.5);

Which mass density value is on record for CN(C)C=O [dimethylformamide] ?
939.5

Which mass density value is on record for `COc1ccccc1` ?
984.1

Which mass density value is on record for C[S+](C)[O-] [dimethyl sulfoxide] ?
1090.8

Which mass density value is on record for CCOC(=O)C(=O)OCC [diethyl ethanedioate] ?
1066.6

Which mass density value is on record for `ClC(Cl)C(Cl)Cl` ?
1580.6

Which mass density value is on record for `ClC(Cl)=C(Cl)Cl` ?
1606.9

Which mass density value is on record for `C1COCCO1` ?
1023.1

----------
Details: 298.15 K; 101 kPa; Liquid
Overview of reported viscosity across a group of molecules:
# unit: mPa·s | format: bare number

Please review the entries below; each comes with its answer.
INSERT INTO measurements (molecule, unit_text, observed_measurement) VALUES
  ('COc1ccccc1', 'mPa·s', 0.992),
  ('C[S+](C)[O-] [dimethyl sulfoxide]', 'mPa·s', 1.984),
  ('OCCCl [1-chloro-2-hydroxyethane]', 'mPa·s', 3.104),
  ('CN(C)C=O [dimethylformamide]', 'mPa·s', 0.801),
  ('ClC(Cl)=C(Cl)Cl', 'mPa·s', 0.861),
  ('CCOC(=O)C(=O)OCC [diethyl ethanedioate]', 'mPa·s', 1.844),
  ('ClC(Cl)C(Cl)Cl', 'mPa·s', 1.591);

Turning to the following molecule.
Which viscosity value is on record for `C1COCCO1` ?
1.415

----------
Settings: 308.15 K; 101 kPa; Liquid
test.readout: viscosity (mPa·s)
# unit: mPa·s | format: bare number

Which viscosity value is on record for C[S+](C)[O-] [dimethyl sulfoxide] ?
1.651

Which viscosity value is on record for `COc1ccccc1` ?
0.853

Which viscosity value is on record for CN(C)C=O [dimethylformamide] ?
0.711

----------
Experiment: refractive index (Na D-line) (dimensionless)
Conditions: 298.15 K; 101.33 kPa; Liquid
Overview of reported refractive index across a group of compounds:
Give the figure by itself; no unit, no explanation.

INSERT INTO measurements (compound, observed_measurement) VALUES
  ('ClC(Cl)C(Cl)Cl [1,1,2,2-tetrachloroethane]', 1.4922),
  ('ClC(Cl)=C(Cl)Cl [tetrachloroethene]', 1.5036),
  ('C1COCCO1 [1,4-dioxane]', 1.4181);

Which refractive index value is on record for CCOC(=O)C(=O)OCC [diethyl ethanedioate] ?
1.4084

Which refractive index value is on record for CN(C)C=O [dimethylformamide] ?
1.4288

Which refractive index value is on record for COc1ccccc1 [anisole] ?
1.5148
